# System: Human glioma cells GL07
# experimentalProtocol: Antitumor effect on human glioma cells (GL07) transplanted into nude mice
# Type: in vivo
# conditions: Mus musculus, Glioma cell, 216 h, GL07, oral, 20 mg/kg once a day for 9 days, read-out: TGIR, % (tumor growth inhibition rate)
readoutName: inhibition in vivo at 20 mg/kg

COc1ccccc1NC(=O)Nc1ccc(Oc2ncnc3cc(OC)c(OC)cc23)c(C)c1 | 44%
CCCNC(=O)Nc1ccc(Oc2ccnc3cc(OCc4ccncc4)c(OC)cc23)cc1Cl | 53%
COc1cc2ncnc(Oc3ccc(NC(=O)NCc4ccc(F)cc4F)c(Cl)c3)c2cc1OC | 27%
CNC(=O)Nc1ccc(Oc2ncnc3cc(OCCCN4CCCCC4)c(OC)cc23)cc1Cl | 48%
CCCNC(=O)Nc1ccc(Oc2ncnc3cc(OCCO)c(OC)cc23)cc1Cl | 21%
CCCNC(=O)Nc1ccc(Oc2ncnc3cc(OCCCN4CCCCC4)c(OC)cc23)cc1Cl | 62%
COc1cc2c(Oc3ccc(NC(=O)N(C)C)c(Cl)c3)ncnc2cc1OCCN1CCOCC1 | 28%
COc1cc2ncnc(Oc3ccc(NC(=O)Nc4ccc(F)cc4)c(C)c3)c2cc1OC | 20%
